The origin of these recorded values is patent US12479830B2.

Recorded below: Ki, system Human σ1 receptor (Homo sapiens).

Past entries and their recorded results:
CCC[C@@H](c1nc2cc(Cl)c(Cl)cc2c(=O)n1CC)N1CCN(C)C[C@@H](C)C1    500 to 1000 nM
CCC[C@@H](c1nc2ccc(F)cc2c(=O)n1CC)N1CCCN[C@H](C)C1    > 1000 nM
CCCC(c1nc2c(F)cc(OC)cc2c(=O)n1CC)N1CCCN(C)CC1 (stereo not drawn)    500 to 1000 nM
CCC[C@H](c1nc2ccc(Br)cc2c(=O)n1CC)N1CCN[C@H](C)CC1    > 1000 nM
CCC[C@H](c1nc2ccc(C(F)(F)F)cc2c(=O)n1CC)N1CCN[C@@H](C)CC1    < 500 nM
CCC[C@H](c1nc2ccc(F)cc2c(=O)n1C(C)C)N1CCCN(C)CC1    500 to 1000 nM
CCC[C@@H](c1nc2ncc(Br)cc2c(=O)n1CC)N1CCNC[C@@H](C)C1    > 1000 nM
CCC[C@@H](c1nc2ccc(Br)cc2c(=O)n1CCC)N1CCNC[C@H](C)C1    > 1000 nM

Exercise: Form field: Ki recorded for `CCC[C@H](c1nc2cc(OC)c(F)cc2c(=O)n1CC)N1CCCN(C)CC1` with Human σ1 receptor (Homo sapiens) (enter value)
Key: 500 to 1000 nM

Exercise: Item CCCC(c1nc2ccc(Br)cc2c(=O)n1CC)N1CCN2CCC1CC2 (stereo not drawn) with Human σ1 receptor (Homo sapiens) - Ki?
Key: > 1000 nM

Exercise: What is its Ki for Human σ1 receptor (Homo sapiens)? Entry: `CCC[C@H](c1nc2ccc(F)cc2c(=O)n1CCC)N1CCCN(C)CC1`
Key: < 500 nM

Exercise: Requested read-out Ki, target or system Human σ1 receptor (Homo sapiens), entry CCCC(c1nc2ccc(Br)c(F)c2c(=O)n1CC)N1CCCNCC1 (stereo not drawn)
Key: > 1000 nM

Exercise: For the record `CCC[C@@H](c1nc2ccc(Br)cc2c(=O)n1CCC)N1CCNC[C@@H](C)C1` , what value of Ki is listed for Human σ1 receptor (Homo sapiens)?
Key: > 1000 nM

Exercise: So what Ki did `CCC[C@H](c1nc2ccc(F)cc2c(=O)n1CC)N1CCN[C@@H](C)CC1` get with Human σ1 receptor (Homo sapiens)?
Key: < 500 nM

Exercise: Requested read-out Ki, target or system Human σ1 receptor (Homo sapiens), entry CCCC(c1nc2ccc(F)cc2c(=O)n1CC)C1CCCN(C)CC1 (stereo not drawn)
Key: 500 to 1000 nM

Exercise: What is its Ki for Human σ1 receptor (Homo sapiens)? Entry: CCCC(c1nc2cc(Cl)c(Cl)cc2c(=O)n1CC)N1CCCNCC1 (stereo not drawn)
Key: 500 to 1000 nM

Exercise: Recall the recorded Ki for CCCC(c1nc2ccncc2c(=O)n1CC)N1CCCNCC1 (stereo not drawn) with Human σ1 receptor (Homo sapiens) and state it.
Sequence (Q99720 whole entry): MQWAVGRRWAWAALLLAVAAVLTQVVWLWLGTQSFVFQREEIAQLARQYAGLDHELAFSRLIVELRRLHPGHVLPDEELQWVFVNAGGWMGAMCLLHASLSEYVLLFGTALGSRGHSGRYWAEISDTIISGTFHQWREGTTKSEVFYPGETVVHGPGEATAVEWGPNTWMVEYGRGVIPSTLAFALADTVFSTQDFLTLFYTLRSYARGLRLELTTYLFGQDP
Key: > 1000 nM

Exercise: Look up Ki with Human σ1 receptor (Homo sapiens) for this molecule: CCCC(c1nc2cccnc2c(=O)n1CC)N1CCCN(C)CC1 (stereo not drawn)
Key: > 1000 nM
